Target: human MCH1 receptor (Homo sapiens, UniProt Q99705)
Sequence (Q99705 whole entry): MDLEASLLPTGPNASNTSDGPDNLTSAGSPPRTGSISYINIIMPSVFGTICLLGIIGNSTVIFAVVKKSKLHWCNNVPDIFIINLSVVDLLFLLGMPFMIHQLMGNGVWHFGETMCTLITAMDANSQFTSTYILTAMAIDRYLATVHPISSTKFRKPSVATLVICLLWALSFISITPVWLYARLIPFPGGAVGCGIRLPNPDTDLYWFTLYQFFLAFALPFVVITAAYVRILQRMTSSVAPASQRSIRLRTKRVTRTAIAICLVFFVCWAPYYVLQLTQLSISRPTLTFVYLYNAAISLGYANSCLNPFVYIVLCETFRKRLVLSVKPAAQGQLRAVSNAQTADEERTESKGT
Experiment: Competition binding, membrane preparations of A293 cells expressing the human MCH1 receptor, [3H] Compound 10 as radioligand
Set-up: expressed in transfected cells
Conditions: Table 3b; A293 cell membranes, [3H] Compound 10; read-out: hMCH1* Ki
REPORTED PROPERTY: pKi
// field semantics: pKi = negative decimal log of concentration (mol/L)

INPUT: Give pKi (human MCH1 receptor (Homo sapiens, UniProt Q99705)) of the following substance: 2-(3,4-DIFLUOROPHENYL)4,5-DIHYDROIMIDAZOLE-1-CARBOXYLIC ACID {3-[4-PHENYL-4-(4-BROMO-5-METHYLTHIOPNEN-2-YL)]-PROPYL}-AMIDE [Example 19]
OUTPUT: 8.52

---

Molecular target: human MCH1 receptor (Homo sapiens, UniProt Q99705)
REPORTED PROPERTY: pKd
// field semantics: pKd = negative decimal log of concentration (mol/L)

INPUT: Returns the measured pKd for the input compound. Input: COCC1=C(C(=O)OC)[C@H](c2ccc(F)c(F)c2)N(C(=O)NCCCN2CCC(c3cccc(NC(C)=O)c3)CC2)C(=O)N1 [[3H]Compound 10]
OUTPUT: 9.74

---

Target: human GALR1 receptor (Homo sapiens)
Construct: expressed in transfected cells
Sequence (P47211 whole entry): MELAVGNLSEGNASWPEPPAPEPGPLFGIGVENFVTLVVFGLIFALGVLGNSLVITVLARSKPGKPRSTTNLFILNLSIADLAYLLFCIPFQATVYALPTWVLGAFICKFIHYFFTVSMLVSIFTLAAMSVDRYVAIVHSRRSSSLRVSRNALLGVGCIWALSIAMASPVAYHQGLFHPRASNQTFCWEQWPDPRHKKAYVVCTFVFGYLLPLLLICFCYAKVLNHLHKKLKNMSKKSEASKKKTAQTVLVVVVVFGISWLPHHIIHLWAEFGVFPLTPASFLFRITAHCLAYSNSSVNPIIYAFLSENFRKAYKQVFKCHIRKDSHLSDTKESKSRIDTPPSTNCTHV
Assay: Binding affinity at the human GALR1 receptor
Details: Table 3b; read-out: hGALR1 Ki
pKi: −log10 of the molar value.
REPORTED PROPERTY: pKi

INPUT: Returns the measured pKi for the input substance. Input: 2-(3,4-DIFLUOROPHENYL)4,5-DIHYDROIMIDAZOLE-1-CARBOXYLIC ACID {3-[4-PHENYL-4-(4-BROMO-5-METHYLTHIOPNEN-2-YL)]-PROPYL}-AMIDE [Example 19]
OUTPUT: < 4.30

---

Molecular target: rat MCH1 receptor (Rattus norvegicus)
Construct: expressed in transfected cells
Experiment: Binding affinity (Ki) at the rat MCH1 receptor
Details: Examples 38-141; read-out: Ki (nM) rMCH1
Field 'label' (enum: Criterion met / Criterion not met). Set to Criterion met when Ki is strictly under 70 nM; else Criterion not met.

Worked set:
COCC1=C(C(=O)OC)C(c2ccc(F)c(F)c2)N(C(=O)NCCCN2CCC(c3cc(F)ccc3OC)CC2)C(=O)N1 (stereo not shown) [Example 115] : Criterion met
CC(C)C(=O)Nc1cccc(C2CCN(CC[C@@H](Oc3cccc([N+](=O)[O-])c3)c3ccccc3)CC2)c1 [Example 135] : Criterion met

Okay, next one:
INPUT: In plain terms, does COc1cccc(CC(=O)Nc2cccc(C3CCN(CCCC(=O)c4ccc(OC)cc4OC)CC3)c2)c1 [Example 80] come in under 70 nM for Ki?
OUTPUT: Criterion met

---

Biological target: human Histamine H1 receptor (Homo sapiens)
Construct: expressed in transfected cells
Sequence (P35367 whole entry): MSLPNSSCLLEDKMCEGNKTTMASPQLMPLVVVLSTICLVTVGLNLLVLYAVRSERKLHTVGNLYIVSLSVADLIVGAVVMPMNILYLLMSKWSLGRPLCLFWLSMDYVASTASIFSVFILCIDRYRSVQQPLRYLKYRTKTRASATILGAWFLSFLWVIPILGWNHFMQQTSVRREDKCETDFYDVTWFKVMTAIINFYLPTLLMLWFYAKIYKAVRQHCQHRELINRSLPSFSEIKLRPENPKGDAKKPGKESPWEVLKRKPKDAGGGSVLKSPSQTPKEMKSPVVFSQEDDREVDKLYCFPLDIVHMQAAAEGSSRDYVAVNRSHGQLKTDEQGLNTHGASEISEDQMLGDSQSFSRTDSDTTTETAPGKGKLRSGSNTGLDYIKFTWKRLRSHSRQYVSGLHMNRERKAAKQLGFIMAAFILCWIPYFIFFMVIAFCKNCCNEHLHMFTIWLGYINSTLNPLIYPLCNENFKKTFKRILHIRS
Experiment: Binding affinity at the human histamine H1 receptor
Conditions: Table 3c; read-out: hH1 Ki
Field 'label' (enum: TRUE / FALSE). Set to TRUE when Ki is strictly under 6 µM; else FALSE.

Worked set:
CC(C)C(=O)Nc1cccc(C2CCN(CCCCCN3C(=O)c4ccccc4C3=O)CC2)c1 : FALSE
CC(=O)c1ccccc1O[C@H](CCN1CCC(c2cccc(NC(=O)C(C)C)c2)CC1)c1ccccc1 : FALSE
CCC(C)C(=O)Nc1cccc(C2CCN(CCCNC(=O)C3=C(COC)NC(=O)N[C@@H]3c3ccc(F)c(F)c3)CC2)c1 (stereo partly drawn) : FALSE

INPUT: In plain terms, does "COc1ccc(O[C@H](CCN2CCC(c3cccc(NC(=O)C(C)C)c3)CC2)c2ccccc2)cc1OC" come in under 6 µM for Ki?
OUTPUT: FALSE

INPUT: In plain terms, does "COCC1=C(C(=O)OC)[C@H](c2ccc(F)c(F)c2)N(C(=O)NCCCN2CCC(c3cccc(NC(=O)C(C)C)c3)CC2)C(=O)N1" come in under 6 µM for Ki?
OUTPUT: FALSE

INPUT: In plain terms, does "COc1cccc(CC(=O)Nc2cccc(C3CCN(CCCC(=O)c4ccc(C)c(C)c4)CC3)c2)c1" come in under 6 µM for Ki?
OUTPUT: TRUE

---

Target: human α2C adrenoceptor (Homo sapiens, UniProt P18825)
Construct: expressed in transfected cells
Sequence (P18825 whole entry): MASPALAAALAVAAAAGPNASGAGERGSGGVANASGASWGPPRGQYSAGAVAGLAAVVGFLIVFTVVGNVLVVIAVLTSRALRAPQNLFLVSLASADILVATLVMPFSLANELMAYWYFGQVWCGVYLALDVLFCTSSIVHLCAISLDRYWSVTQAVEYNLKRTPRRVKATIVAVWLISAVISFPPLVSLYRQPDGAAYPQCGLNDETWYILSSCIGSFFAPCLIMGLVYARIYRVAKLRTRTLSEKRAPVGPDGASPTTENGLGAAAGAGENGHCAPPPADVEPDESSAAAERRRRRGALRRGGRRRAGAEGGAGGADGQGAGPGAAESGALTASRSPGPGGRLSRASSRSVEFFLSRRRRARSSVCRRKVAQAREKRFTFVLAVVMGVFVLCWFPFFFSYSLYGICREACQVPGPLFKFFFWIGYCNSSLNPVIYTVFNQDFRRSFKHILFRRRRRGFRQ
Test: Binding affinity at the human α2C adrenergic receptor
Settings: Table 3d; read-out: hα2C Ki
REPORTED PROPERTY: Ki (µM)
Express the result in µM but write the number alone.

INPUT: Returns the measured Ki for the input compound. Input: COC(=O)C1=C(C)NC(=O)N(C(=O)NCCCN2CCC3(CC2)OCc2ccccc23)C1c1ccc(F)c(F)c1 (stereo not shown) [Example 20]
OUTPUT: 0.138

---

Molecular target: human GALR2 receptor (Homo sapiens, UniProt O43603)
Construct: expressed in transfected cells
Sequence (O43603 whole entry): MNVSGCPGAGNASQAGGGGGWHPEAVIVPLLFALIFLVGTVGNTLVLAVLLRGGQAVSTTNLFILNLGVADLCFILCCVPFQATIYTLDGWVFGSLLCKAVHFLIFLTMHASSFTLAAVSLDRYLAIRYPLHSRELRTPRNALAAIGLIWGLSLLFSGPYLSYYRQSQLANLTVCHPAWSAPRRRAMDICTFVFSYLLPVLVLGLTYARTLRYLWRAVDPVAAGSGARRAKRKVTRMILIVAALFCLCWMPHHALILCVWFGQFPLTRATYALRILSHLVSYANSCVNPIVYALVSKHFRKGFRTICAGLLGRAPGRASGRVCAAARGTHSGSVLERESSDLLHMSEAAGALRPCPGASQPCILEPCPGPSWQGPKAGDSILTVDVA
Test: Binding affinity at the human GALR2 receptor
Settings: Table 3a; read-out: hGALR2 Ki
pKi: −log10 of the molar value.
REPORTED PROPERTY: pKi

INPUT: Give pKi (human GALR2 receptor (Homo sapiens, UniProt O43603)) of the following substance: 2-(3,4-DIFLUOROPHENYL)4,5-DIHYDROIMIDAZOLE-1-CARBOXYLIC ACID {3-[4-PHENYL-4-(4-BROMO-5-METHYLTHIOPNEN-2-YL)]-PROPYL}-AMIDE [Example 19]
OUTPUT: < 4.30

---

Biological target: human 5HT1A receptor (Homo sapiens, UniProt P08908)
Sequence (P08908 whole entry): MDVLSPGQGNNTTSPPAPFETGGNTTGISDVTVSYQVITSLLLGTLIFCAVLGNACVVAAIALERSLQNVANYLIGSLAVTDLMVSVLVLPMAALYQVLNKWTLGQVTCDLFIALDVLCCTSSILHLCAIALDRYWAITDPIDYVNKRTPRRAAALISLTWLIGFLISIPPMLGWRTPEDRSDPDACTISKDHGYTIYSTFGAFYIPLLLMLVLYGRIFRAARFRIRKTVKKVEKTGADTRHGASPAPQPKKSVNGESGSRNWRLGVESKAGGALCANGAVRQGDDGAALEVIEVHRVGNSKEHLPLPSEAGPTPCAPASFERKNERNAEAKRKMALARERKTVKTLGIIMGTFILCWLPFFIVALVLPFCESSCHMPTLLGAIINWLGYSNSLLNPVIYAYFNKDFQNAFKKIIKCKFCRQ
Counter-ions that a name gives are not always drawn.
Consider the following molecules and their measured Ki readings.
Express the result in nM but write the number alone.

COC(=O)C1=C(C)NC(=O)N(C(=O)NCCCN2CCC3(CC2)OCc2ccccc23)C1c1ccc2nonc2c1 (single isomer, unassigned) [Example 18, HYDROCHLORIDE] : 1240

--- query ---
INPUT: Returns the measured Ki for the input molecule. Input: COC(=O)C1=C(C)NC(=O)N(C(=O)NCCCN2CCC3(CC2)OCc2ccccc23)C1c1ccc(F)c(F)c1 (centres unmarked)
OUTPUT: 2190

---

Biological target: human GALR2 receptor (Homo sapiens)
Construct: expressed in transfected cells
Experiment: Binding affinity at the human GALR2 receptor
Settings: Table 3b; read-out: hGALR2 Ki
REPORTED PROPERTY: Ki

INPUT: Returns the measured Ki for the input substance. Input: 2-(3,4-DIFLUOROPHENYL)4,5-DIHYDROIMIDAZOLE-1-CARBOXYLIC ACID {3-[4-PHENYL-4-(4-BROMO-5-METHYLTHIOPNEN-2-YL)]-PROPYL}-AMIDE [Example 19]
OUTPUT: > 50 µM

---

Molecular target: rat MCH1 receptor (Rattus norvegicus, UniProt P97639)
Construct: expressed in transfected cells
Sequence (P97639 whole entry): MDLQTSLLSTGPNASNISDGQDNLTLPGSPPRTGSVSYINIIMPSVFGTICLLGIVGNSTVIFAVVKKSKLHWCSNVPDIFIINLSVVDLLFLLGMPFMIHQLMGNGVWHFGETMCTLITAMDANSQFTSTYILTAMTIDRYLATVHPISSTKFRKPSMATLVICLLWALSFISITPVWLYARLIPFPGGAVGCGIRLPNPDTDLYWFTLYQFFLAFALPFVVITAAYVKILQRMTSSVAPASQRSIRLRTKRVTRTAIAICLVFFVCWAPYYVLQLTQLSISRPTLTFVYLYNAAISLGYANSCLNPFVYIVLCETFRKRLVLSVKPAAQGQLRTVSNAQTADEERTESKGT
Assay: Binding affinity (Ki) at the rat MCH1 receptor
Conditions: Table 3c; read-out: rMCH1 Ki
REPORTED PROPERTY: pKi
// field semantics: pKi = negative decimal log of concentration (mol/L)

Past entries and their recorded results:
CC(=O)Nc1cccc(C2CCN(CCCC(=O)c3ccc(C)cc3)CC2)c1 : 6.44
COCC(=O)Nc1cccc(C2CCN(CCCC(=O)c3ccc(Cl)cc3)CC2)c1 : 6.78

INPUT: Returns the measured pKi for the input compound. Input: "O=C(Cc1ccccc1)Nc1cccc(C2CCN(CCCC(=O)c3ccc(Cl)cc3)CC2)c1"
OUTPUT: 7.08

INPUT: Returns the measured pKi for the input compound. Input: "CC(C)C(=O)Nc1cccc(C2CCN(CC[C@@H](Oc3cccc(Cl)c3)c3ccccc3)CC2)c1"
OUTPUT: 8.03

INPUT: Returns the measured pKi for the input compound. Input: "CC(=O)Nc1cccc(C2CCN(CCCC(=O)c3cccs3)CC2)c1"
OUTPUT: 6.18

INPUT: Returns the measured pKi for the input compound. Input: "CS(=O)(=O)Nc1cccc(C2CCN(CCCC(=O)c3ccc(Cl)cc3)CC2)c1"
OUTPUT: 6.14

INPUT: Returns the measured pKi for the input compound. Input: "Cc1ccc(C(=O)CCCN2CCC(c3cccc(NS(C)(=O)=O)c3)CC2)cc1C"
OUTPUT: 6.00

INPUT: Returns the measured pKi for the input compound. Input: CC(C)OC(CCN1CCC(c2cccc(NC(=O)C(C)C)c2)CC1)c1ccccc1 (centres unmarked)
OUTPUT: 7.94

INPUT: Returns the measured pKi for the input compound. Input: "COc1cc(C#N)ccc1O[C@@H](CCN1CCC(c2cccc(NC(=O)C(C)C)c2)CC1)c1ccccc1"
OUTPUT: 7.89

INPUT: Returns the measured pKi for the input compound. Input: "CCS(=O)(=O)Nc1cccc(C2CCN(CCCC(=O)c3ccc(C)c(C)c3)CC2)c1"
OUTPUT: 6.20

INPUT: Returns the measured pKi for the input compound. Input: "COc1ccc(C(=O)CCCN2CCC(c3cccc(NC(=O)Cc4ccccc4)c3)CC2)c(OC)c1"
OUTPUT: 5.98

INPUT: Returns the measured pKi for the input compound. Input: "COc1ccc(O[C@@H](CCN2CCC(c3cccc(NC(=O)C(C)C)c3)CC2)c2ccccc2)cc1"
OUTPUT: 8.41

INPUT: Returns the measured pKi for the input compound. Input: "COCC(=O)Nc1cccc(C2CCN(CCCC(=O)c3ccc(C)c(C)c3)CC2)c1"
OUTPUT: 6.56

INPUT: Returns the measured pKi for the input compound. Input: "CC(=O)Nc1cccc(C2CCN(CCCC(=O)c3ccc(Oc4ccccc4)cc3)CC2)c1"
OUTPUT: 6.33
